IC80 at 24 h: recorded values
assay: Cytotoxicity against LPS-treated mouse RAW264.7 cells assessed as decrease in cell viability after 24 hrs by MTT assay; type: cell-based; details: LPS-treated RAW264.7 cells

# smilesRepr, IC80 at 24 h
rows = [
    ("O=C1S/C(=C\\c2ccc(Oc3ccc(F)cc3)cc2)C(=O)N1c1ccc(OCCCCCN2CCN(CC3CC3)CC2)cc1", "> 6000 nM"),
    ("O=C1S/C(=C\\c2ccc(N3CCOCC3)c(Cl)c2)C(=O)N1c1ccc(OCCCCCN2CCN(CC3CC3)CC2)cc1", "< 1500 nM"),
    ("O=C1S/C(=C\\c2ccc(N3CCOCC3)c(Cl)c2)C(=O)N1c1ccc(OCCCN2CCN(CC3CC3)CC2)cc1", "2670 nM"),
    ("O=C1S/C(=C\\c2ccc(Oc3ccc([N+](=O)[O-])cc3)cc2)C(=O)N1c1ccc(OCCCCN2CCN(CC3CC3)CC2)cc1", "> 6000 nM"),
]

* * *

test system: RAW264.7; assay: Antiinflammatory activity against mouse RAW264.7 cells assessed as inhibition of LPS-induced TNFalpha production incubated for 1 hr followed by LPS addition measured after 24 hrs by ELISA; assay type: functional, cell-based
pIC50: −log10 of the molar value.

# smilesRepr, inequalitySign, pIC50
records = [
    ("O=C1S/C(=C\\c2ccc(Oc3ccc(F)cc3)cc2)C(=O)N1c1ccc(OCCCCCN2CCN(CC3CC3)CC2)cc1", "=", 5.78),
    ("O=C1S/C(=C\\c2ccc(N3CCOCC3)c(Cl)c2)C(=O)N1c1ccc(OCCCN2CCN(CC3CC3)CC2)cc1", "<", 5.22),
    ("O=C1S/C(=C\\c2ccc(Oc3ccc([N+](=O)[O-])cc3)cc2)C(=O)N1c1ccc(OCCCCN2CCN(CC3CC3)CC2)cc1", "=", 5.47),
]

* * *

molecular target: Inhibitor of nuclear factor kappa-B kinase subunit beta (Homo sapiens); assay: Inhibition of IKKbeta (unknown origin) at 10 uM using IkappaBalpha-derived 5FAMGRHDSGLDSMK-NH2 as substrate preincubated for 10 mins followed by substrate addition measured after 2 hrs by IMAP based TR-FRET assay relative to control
Assign a class from recorded inhibition; defined classes: bottom range = under 2%, center range = from 2% up to 60%, top range = 60% and over

# smilesRepr, class
data = [
    ("COCCCN1CCN(CCCCOc2ccc(N3C(=O)S/C(=C\\c4ccc(Oc5ccc(F)cc5)cc4)C3=O)cc2)CC1", "bottom range"),
    ("COCCN1CCN(CCCCOc2ccc(N3C(=O)S/C(=C\\c4ccc(Oc5ccc(F)cc5)cc4)C3=O)cc2)CC1", "bottom range"),
    ("O=C(C1CC1)N1CCN(CCCCOc2ccc(N3C(=O)S/C(=C\\c4ccc(Oc5ccc(Br)cc5)cc4)C3=O)cc2)CC1", "center range"),
    ("O=C1S/C(=C\\c2ccc(Oc3ccc(F)cc3)cc2)C(=O)N1c1ccc(OCCCCN2CCN(CC3CC3)CC2)cc1", "top range"),
    ("O=C1S/C(=C\\c2ccc(N3CCOCC3)c(Cl)c2)C(=O)N1c1ccc(OCCCCCN2CCN(CC3CC3)CC2)cc1", "top range"),
    ("COCCCN1CCN(CCCCOc2ccc(N3C(=O)S/C(=C\\c4ccc(Oc5ccc([N+](=O)[O-])cc5)cc4)C3=O)cc2)CC1", "center range"),
    ("CS(=O)(=O)N1CCN(CCCCOc2ccc(N3C(=O)S/C(=C\\c4ccc(Oc5ccc([N+](=O)[O-])cc5)cc4)C3=O)cc2)CC1", "bottom range"),
    ("CS(=O)(=O)N1CCN(CCCCOc2ccc(N3C(=O)S/C(=C\\c4ccc(Oc5ccc(Br)cc5)cc4)C3=O)cc2)CC1", "center range"),
    ("O=C1S/C(=C\\c2ccc(Oc3ccc(Cl)cc3)cc2)C(=O)N1c1ccc(OCCCCN2CCN(CC3CC3)CC2)cc1", "center range"),
    ("O=C1S/C(=C\\c2ccc(Oc3ccc(F)cc3)cc2)C(=O)N1c1ccc(OCCCN2CCN(CC3CC3)CC2)cc1", "top range"),
    ("CS(=O)(=O)N1CCN(CCCCOc2ccc(N3C(=O)S/C(=C\\c4ccc(Oc5ccc(Cl)cc5)cc4)C3=O)cc2)CC1", "bottom range"),
    ("O=C1S/C(=C\\c2ccc(N3CCOCC3)c(Cl)c2)C(=O)N1c1ccc(OCCCN2CCN(CC3CC3)CC2)cc1", "top range"),
    ("COCCCN1CCN(CCCCOc2ccc(N3C(=O)S/C(=C\\c4ccc(Oc5ccc(Cl)cc5)cc4)C3=O)cc2)CC1", "bottom range"),
    ("COCCN1CCN(CCCCOc2ccc(N3C(=O)S/C(=C\\c4ccc(Oc5ccc([N+](=O)[O-])cc5)cc4)C3=O)cc2)CC1", "center range"),
]

* * *

IC50: recorded values
biological target: Inhibitor of nuclear factor kappa-B kinase subunit beta (Homo sapiens, UniProt O14920); assay: Irreversible inhibition of IKKbeta (unknown origin) using IkappaBalpha-derived 5FAMGRHDSGLDSMK-NH2 as substrate measured immediately
Sequence (O14920 whole entry): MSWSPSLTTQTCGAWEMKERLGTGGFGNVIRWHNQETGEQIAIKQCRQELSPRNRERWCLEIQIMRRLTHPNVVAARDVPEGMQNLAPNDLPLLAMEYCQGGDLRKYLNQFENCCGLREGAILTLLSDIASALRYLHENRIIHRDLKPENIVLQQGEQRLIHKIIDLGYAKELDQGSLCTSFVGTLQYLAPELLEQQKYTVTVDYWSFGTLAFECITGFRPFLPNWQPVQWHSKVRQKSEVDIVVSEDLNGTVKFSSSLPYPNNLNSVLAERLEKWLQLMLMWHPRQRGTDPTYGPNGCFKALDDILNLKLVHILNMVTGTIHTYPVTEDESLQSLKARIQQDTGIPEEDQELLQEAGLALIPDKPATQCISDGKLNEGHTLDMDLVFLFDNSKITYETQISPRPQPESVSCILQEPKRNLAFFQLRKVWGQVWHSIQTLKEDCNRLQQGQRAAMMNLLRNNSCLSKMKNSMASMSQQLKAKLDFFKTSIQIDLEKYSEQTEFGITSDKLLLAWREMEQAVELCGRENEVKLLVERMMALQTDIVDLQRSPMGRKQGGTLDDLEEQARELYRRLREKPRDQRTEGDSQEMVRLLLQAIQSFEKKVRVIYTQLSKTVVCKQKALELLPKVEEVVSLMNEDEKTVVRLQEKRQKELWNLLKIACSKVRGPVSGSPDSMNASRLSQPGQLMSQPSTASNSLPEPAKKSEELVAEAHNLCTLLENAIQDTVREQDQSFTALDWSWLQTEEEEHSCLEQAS
measurementKind: IC50 (µM)

# smilesRepr, obsValue
records = [
    ("O=C1S/C(=C\\c2ccc(N3CCOCC3)c(Cl)c2)C(=O)N1c1ccc(OCCCN2CCN(CC3CC3)CC2)cc1", 0.372),
    ("O=C1S/C(=C\\c2ccc(Oc3ccc(F)cc3)cc2)C(=O)N1c1ccc(OCCCCCN2CCN(CC3CC3)CC2)cc1", 1.1),
]

* * *

inhibition at 100 µM: recorded values
target: UniProt:Q12809; experiment: Inhibition of human ERG expressed in CHOK1 cells assessed as reduction in tail current at 100 uM and -80 holding potential after 100 to 200 secs by whole cell automated patch-clamp electrophysiology assay relative to control; format: ADME, cell-based; settings: CHO-K1 cells expressing human ERG
Sequence (Q12809 whole entry): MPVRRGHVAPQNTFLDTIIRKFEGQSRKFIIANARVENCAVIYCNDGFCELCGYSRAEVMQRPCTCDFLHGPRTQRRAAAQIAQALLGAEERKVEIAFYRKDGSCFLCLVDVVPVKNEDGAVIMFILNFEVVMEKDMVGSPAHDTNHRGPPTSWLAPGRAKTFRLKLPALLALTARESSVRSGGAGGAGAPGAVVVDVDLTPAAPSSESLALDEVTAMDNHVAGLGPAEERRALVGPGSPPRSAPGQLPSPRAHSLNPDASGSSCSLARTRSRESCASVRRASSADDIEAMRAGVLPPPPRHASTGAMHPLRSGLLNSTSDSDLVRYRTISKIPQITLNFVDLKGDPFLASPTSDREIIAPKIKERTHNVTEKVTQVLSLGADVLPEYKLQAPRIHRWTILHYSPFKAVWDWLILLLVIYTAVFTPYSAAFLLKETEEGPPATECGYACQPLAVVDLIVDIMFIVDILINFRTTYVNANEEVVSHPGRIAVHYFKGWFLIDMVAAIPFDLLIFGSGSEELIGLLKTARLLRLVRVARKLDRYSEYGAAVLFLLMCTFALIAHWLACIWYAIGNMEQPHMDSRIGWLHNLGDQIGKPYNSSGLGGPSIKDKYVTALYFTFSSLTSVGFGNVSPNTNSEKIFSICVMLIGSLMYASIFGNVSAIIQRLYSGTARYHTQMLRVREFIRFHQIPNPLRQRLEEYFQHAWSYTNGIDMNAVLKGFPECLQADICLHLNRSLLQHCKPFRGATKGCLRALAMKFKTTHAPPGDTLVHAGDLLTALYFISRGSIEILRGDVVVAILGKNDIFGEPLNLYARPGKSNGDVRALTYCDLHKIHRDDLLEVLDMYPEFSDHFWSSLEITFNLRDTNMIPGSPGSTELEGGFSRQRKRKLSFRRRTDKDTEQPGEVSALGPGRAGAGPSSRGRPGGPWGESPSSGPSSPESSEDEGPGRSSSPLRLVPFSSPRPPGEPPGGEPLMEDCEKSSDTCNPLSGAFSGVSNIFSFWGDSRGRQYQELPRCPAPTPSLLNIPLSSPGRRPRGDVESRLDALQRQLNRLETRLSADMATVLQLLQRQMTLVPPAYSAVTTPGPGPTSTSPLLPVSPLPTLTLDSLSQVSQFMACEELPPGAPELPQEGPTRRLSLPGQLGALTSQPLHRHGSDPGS
measurementKind: inhibition at 100 µM (%)

# smilesRepr, measurementKind, obsValue
records = [
    ("O=C1S/C(=C\\c2ccc(Oc3ccc(Br)cc3)cc2)C(=O)N1c1ccc(OCCCCN2CCN(CC3CC3)CC2)cc1", "inhibition at 100 µM", 66.5),
    ("O=C(C1CC1)N1CCN(CCCCOc2ccc(N3C(=O)S/C(=C\\c4ccc(Oc5ccc(Br)cc5)cc4)C3=O)cc2)CC1", "inhibition at 100 µM", 17.1),
    ("O=C1S/C(=C\\c2ccc(Oc3ccc(F)cc3)cc2)C(=O)N1c1ccc(OCCCCN2CCN(CC3CC3)CC2)cc1", "inhibition at 100 µM", 99.5),
    ("O=C1S/C(=C\\c2ccc(Oc3ccc([N+](=O)[O-])cc3)cc2)C(=O)N1c1ccc(OCCCCN2CCN(CC3CC3)CC2)cc1", "inhibition at 100 µM", 61.2),
]

* * *

inhibition: recorded values
target: Inhibitor of nuclear factor kappa-B kinase subunit beta (Homo sapiens) (UniProt O14920); assay: Inhibition of IKKbeta (unknown origin) at 10 uM using IkappaBalpha-derived 5FAMGRHDSGLDSMK-NH2 as substrate preincubated for 10 mins followed by substrate addition measured after 2 hrs by IMAP based TR-FRET assay relative to control

# smilesRepr, measurementUnit, inhibition
rows = [
    ("COCCN1CCN(CCCCOc2ccc(N3C(=O)S/C(=C\\c4ccc(Oc5ccc(Br)cc5)cc4)C3=O)cc2)CC1", "%", 0),
    ("O=C1S/C(=C\\c2ccc(Oc3ccc([N+](=O)[O-])cc3)cc2)C(=O)N1c1ccc(OCCCCN2CCN(CC3CC3)CC2)cc1", "%", 85.6),
    ("O=C(C1CC1)N1CCN(CCCCOc2ccc(N3C(=O)S/C(=C\\c4ccc(Oc5ccc([N+](=O)[O-])cc5)cc4)C3=O)cc2)CC1", "%", 21.7),
    ("O=C1S/C(=C\\c2ccc(Oc3ccc(F)cc3)cc2)C(=O)N1c1ccc(OCCCCCN2CCN(CC3CC3)CC2)cc1", "%", 92.8),
    ("O=C(C1CC1)N1CCN(CCCCOc2ccc(N3C(=O)S/C(=C\\c4ccc(Oc5ccc(Cl)cc5)cc4)C3=O)cc2)CC1", "%", 17),
]
